- Test system: Rattus norvegicus
- experimental details: Percent inhibition of cellular migration by the compound at a dose of 100 umol/kg was evaluated
- Assay type: functional
I'd be grateful if you could share measured inhibition in vivo at 100 µmol/kg for these entries.
One number for each entry, in %.

Would you please look over these solved cases?
Cc1nn(-c2ccccc2)c2ncc3c(OC(=O)CCCC(=O)O)c(-c4ccc(Cl)cc4)sc3c12
36.2
Cc1nn(-c2ccccc2)c2ncc3c(OCc4ccc(CC(=O)O)cc4)c(-c4ccc(Cl)cc4)sc3c12
28.7
Cc1nn(-c2ccccc2)c2ncc3c(OCCCCC(=O)O)c(-c4ccc(Cl)cc4)sc3c12
30

### Prompt Reported inhibition in vivo at 100 µmol/kg, compound Cc1nn(-c2ccccc2)c2ncc3c(OCCCCCC(=O)O)c(-c4ccc(Cl)cc4)sc3c12 : ____
### Response 42
